Test system: Enterococcus faecalis
Experiment: Antibacterial activity against Enterococcus faecalis isolate MB 3 after 24 hrs by microdilution assay
Type: functional
Conditions: isolate MB 3, 24 h
In this section we review reported MIC values for a set of compounds.
Answer with a number only, understood to be in µM.

Ask: Please report MIC for the following compound: "CC(=O)O[C@H](C[C@@]1(C)[C@H](C)[C@H](O[C@@H]2O[C@H](CO)[C@@H](O)C(=O)[C@H]2O)C[C@@]23COC(=O)C2=CCC[C@@H]31)c1ccoc1"
Reply: 117

Ask: Return reported MIC. Input compound: "C[C@]12C[C@H](c3ccoc3)OC(=O)[C@]1(O)[C@H](O)C[C@@]13COC(=O)C1=CCC[C@@H]32"
Reply: 342

Ask: Please list MIC recorded for the compound "CC(C)c1cc2c(c(O)c1O)[C@@]13CCCC(C)(C)[C@@H]1[C@H](OC3=O)C2=O"
Reply: 93

###

Tested on: Klebsiella pneumoniae
Assay: Antibacterial activity against Klebsiella pneumoniae isolate MB 11 after 24 hrs by microdilution assay
Type: functional
Activity calls are given as the source filed them. The rule behind the calls is not given here.
Quantity Kind: Activity

Field: example entries. Status: answers known.
[[record]]
structure_smiles = "O=C1OCC=C1[C@H]1CCc2ccc3c(c2C1)[C@H](c1ccoc1)OC3=O"
subject_of_test = "Klebsiella pneumoniae"
val = "inactive"

[[record]]
structure_smiles = "CC(C)c1cc2c(c(O)c1O)[C@@]13CCCC(C)(C)[C@@H]1[C@H](OC3=O)C2=O"
subject_of_test = "Klebsiella pneumoniae"
val = "inactive"

[[record]]
structure_smiles = "C[C@@]12/C=C/C=C\\C3=C(COC3=O)C[C@@H](O)[C@H]1C(=O)O[C@@H](c1ccoc1)C2"
subject_of_test = "Klebsiella pneumoniae"
val = "inactive"

[[record]]
structure_smiles = "C[C@]12C[C@H](c3ccoc3)OC(=O)[C@@H]1[C@H](O)C[C@]13COC(=O)C1=CC=C[C@@H]32"
subject_of_test = "Klebsiella pneumoniae"
val = "inactive"


Ask: Give a short answer stating reported Activity for "C[C@]12C[C@H](c3ccoc3)OC(=O)[C@@]1(O)[C@H](O)C[C@@]13COC(=O)C1=CCC[C@@H]32" .
Reply: inactive

Ask: Specify Activity for "CC(=O)O[C@H](C[C@@]1(C)[C@H](C)[C@H](O[C@@H]2O[C@H](CO)[C@@H](O)C(=O)[C@H]2O)C[C@@]23COC(=O)C2=CCC[C@@H]31)c1ccoc1" and stop.
Reply: inactive

Ask: Look up and report measured Activity for this entry: "C[C@]12C[C@H](c3ccoc3)OC(=O)[C@]1(O)[C@H](O)C[C@@]13COC(=O)C1=CCC[C@@H]32"
Reply: inactive

###

System: Enterococcus faecium
Test: Antibacterial activity against vancomycin-resistant Enterococcus faecium isolate MB 23 after 24 hrs by microdilution assay
Assay type: functional
Details: isolate MB 23, 24 h
Quantity Kind: MIC

[[record]]
structure_smiles = "C[C@]12C[C@H](c3ccoc3)OC(=O)[C@@H]1[C@H](O)C[C@]13COC(=O)C1=CC=C[C@@H]32"
quantity_kind = "MIC"
val = "> 128 µg/mL"

[[record]]
structure_smiles = "C[C@]12C[C@H](c3ccoc3)OC(=O)[C@@]1(O)[C@H](O)C[C@@]13COC(=O)C1=CCC[C@@H]32"
quantity_kind = "MIC"
val = "342 µM"

[[record]]
structure_smiles = "C[C@@]12/C=C/C=C\\C3=C(COC3=O)C[C@@H](O)[C@H]1C(=O)O[C@@H](c1ccoc1)C2"
quantity_kind = "MIC"
val = "180 µM"

[[record]]
structure_smiles = "C[C@]12C[C@H](c3ccoc3)OC(=O)[C@]1(O)[C@H](O)C[C@@]13COC(=O)C1=CCC[C@@H]32"
quantity_kind = "MIC"
val = "342 µM"

[[record]]
structure_smiles = "CC(=O)O[C@H](C[C@@]1(C)[C@H](C)[C@H](O[C@@H]2O[C@H](CO)[C@@H](O)C(=O)[C@H]2O)C[C@@]23COC(=O)C2=CCC[C@@H]31)c1ccoc1"
quantity_kind = "MIC"
val = "> 128 µg/mL"

[[record]]
structure_smiles = "CC(C)c1cc2c(c(O)c1O)[C@@]13CCCC(C)(C)[C@@H]1[C@H](OC3=O)C2=O"
quantity_kind = "MIC"
val = "93 µM"


Turning to the following molecule.
Ask: Item "O=C1OCC=C1[C@H]1CCc2ccc3c(c2C1)[C@H](c1ccoc1)OC3=O" : provide MIC
Reply: 381 µM
